experimental_system: HLA-B*35:01
assay_name: IEDB peptide-MHC binding, purified MHC/competitive/radioactivity; filed as Kd, often an IC50 or EC50 that approximates it; bounds were set here for any values at or beyond the usual limits of such assays
assay_setup: source organism: Dengue virus 1 Brazil/97-11/1997
measured_attribute: Kd (µM)
Answer format: numeric, µM implied, no suffix.

Given `MPSVVETLEQ` , state its recorded Kd.
6.11

----------
experimental_system: HLA-B*53:01
assay_name: IEDB peptide-MHC binding, purified MHC/competitive/radioactivity; filed as Kd, often an IC50 or EC50 that approximates it; bounds were set here for any values at or beyond the usual limits of such assays
assay_setup: source organism: Vaccinia virus Copenhagen
measured_attribute: Kd

Given `NLFDIPLLTV` , state its recorded Kd.
≥ 69.9 µM

----------
experimental_system: HLA-A*03:01
assay_name: IEDB peptide-MHC binding, purified MHC/competitive/fluorescence; filed as Kd, often an IC50 or EC50 that approximates it; bounds were set here for any values at or beyond the usual limits of such assays
assay_setup: source organism: Brucella suis ATCC 23445
measured_attribute: Kd

Given `ITAVNRYFK` , state its recorded Kd.
57 nM

----------
experimental_system: HLA-A*69:01
assay_name: IEDB peptide-MHC binding, purified MHC/direct/fluorescence; filed as Kd, often an IC50 or EC50 that approximates it; bounds were set here for any values at or beyond the usual limits of such assays
assay_setup: source organism: Salmonella enterica subsp. enterica serovar Typhimurium
measured_attribute: Kd (nM)
Answer format: numeric, nM implied, no suffix.

Given `ATISYRIKL` , state its recorded Kd.
55.8

----------
The following sequences are listed with their measured pKd values.
experimental_system: HLA-A*01:01
assay_name: IEDB peptide-MHC binding, purified MHC/direct/fluorescence; filed as Kd, often an IC50 or EC50 that approximates it; bounds were set here for any values at or beyond the usual limits of such assays
assay_setup: source organism: Vibrio cholerae
pKd: −log10 of the molar value.

# biosequence, experimental_system, pKd
rows = [
    ("KGHLPLLDK", "HLA-A*01:01", "≤ 4.70"),
]

Given `AADFPGIAR` , state its recorded pKd.
≤ 4.70

----------
experimental_system: HLA-A*02:01
assay_name: IEDB peptide-MHC binding, purified MHC/competitive/fluorescence; filed as Kd, often an IC50 or EC50 that approximates it; bounds were set here for any values at or beyond the usual limits of such assays
assay_setup: source organism: unidentified
measured_attribute: pKd
Here pKd is given on a logarithmic scale as minus log10 of the concentration in mol/L.

Tell me reported pKd for `YLVVVGAVGV` , tested with HLA-A*02:01.
8.00

----------
experimental_system: HLA-B*08:01
assay_name: IEDB peptide-MHC binding, purified MHC/competitive/fluorescence; bounds were set here for any values at or beyond the usual limits of such assays
assay_setup: source organism: Variola virus
measured_attribute: IC50

Tell me reported IC50 for `TPKAQREIF` , tested with HLA-B*08:01.
≥ 142 µM

----------
experimental_system: HLA-B*57:01
assay_name: IEDB peptide-MHC binding, purified MHC/competitive/radioactivity; filed as Kd, often an IC50 or EC50 that approximates it; bounds were set here for any values at or beyond the usual limits of such assays
assay_setup: source organism: Dengue virus 3 Martinique/1243/1999
measured_attribute: pKd
Here pKd is given on a logarithmic scale as minus log10 of the concentration in mol/L.

# biosequence, pKd
measured = [
    ("KAKGSRAIW", 8.00),
    ("GATTETPTW", 7.09),
    ("WFSRENSYSG", 5.15),
]

Consider the additional sequence presented here.
Given `PATLLVWHTW` , state its recorded pKd.
5.86

----------
experimental_system: HLA-B*46:01
assay_name: IEDB peptide-MHC binding, purified MHC/direct/fluorescence; filed as Kd, often an IC50 or EC50 that approximates it; bounds were set here for any values at or beyond the usual limits of such assays
assay_setup: source organism: West Nile virus
measured_attribute: Kd

Given `YQPEREKVY` , state its recorded Kd.
≥ 20 µM

----------
The following sequences are listed with their measured Kd values.
experimental_system: HLA-B*40:02
assay_name: IEDB peptide-MHC binding, purified MHC/competitive/radioactivity; filed as Kd, often an IC50 or EC50 that approximates it; bounds were set here for any values at or beyond the usual limits of such assays
assay_setup: source organism: Mammarenavirus brazilense
Answer format: numeric, nM implied, no suffix.

These solved cases illustrate the format of a correct answer.
# biosequence, Kd / nM
measured = [
    ("EEVPNIIHEA", 790),
    ("EELSTLYEAL", 121),
]

Consider the additional sequence presented here.
Given `RELLGYCVSL` , state its recorded Kd.
5.07

----------
experimental_system: HLA-B*07:02
assay_name: IEDB peptide-MHC binding, purified MHC/direct/fluorescence; filed as Kd, often an IC50 or EC50 that approximates it; bounds were set here for any values at or beyond the usual limits of such assays
assay_setup: source organism: Toxoplasma gondii
measured_attribute: Kd

Given `AYMDRKSFK` , state its recorded Kd.
≥ 20 µM

----------
experimental_system: HLA-A*30:02
assay_name: IEDB peptide-MHC binding, purified MHC/competitive/radioactivity; filed as Kd, often an IC50 or EC50 that approximates it; bounds were set here for any values at or beyond the usual limits of such assays
assay_setup: source organism: Mammarenavirus machupoense
The following sequences are listed with their measured pKd values.
Here pKd is given on a logarithmic scale as minus log10 of the concentration in mol/L.

These solved cases illustrate the format of a correct answer.
# biosequence, experimental_system, measured_attribute, readout_value
data = [
    ("QCGDPSSFEY", "HLA-A*30:02", "pKd", 5.80),
    ("YKELCDAVY", "HLA-A*30:02", "pKd", 5.85),
]

Consider the additional sequence presented here.
Tell me reported pKd for `CTNFKTQLV` , tested with HLA-A*30:02.
5.64

----------
experimental_system: HLA-A*26:01
assay_name: IEDB peptide-MHC binding, purified MHC/direct/fluorescence; filed as Kd, often an IC50 or EC50 that approximates it; bounds were set here for any values at or beyond the usual limits of such assays
assay_setup: source organism: Salmonella enterica
pKd: −log10 of the molar value.
measured_attribute: pKd

Given `RKAGVNQAK` , state its recorded pKd.
≤ 4.70

----------
experimental_system: HLA-B*48:01
assay_name: IEDB peptide-MHC binding, purified MHC/direct/fluorescence; filed as Kd, often an IC50 or EC50 that approximates it; bounds were set here for any values at or beyond the usual limits of such assays
assay_setup: source organism: Mammarenavirus lassaense
measured_attribute: Kd

Given `DIKLIDIAL` , state its recorded Kd.
≥ 20 µM

----------
experimental_system: HLA-B*15:01
assay_name: IEDB peptide-MHC binding, purified MHC/competitive/fluorescence; filed as Kd, often an IC50 or EC50 that approximates it; bounds were set here for any values at or beyond the usual limits of such assays
assay_setup: source organism: Campylobacter jejuni subsp. jejuni NCTC 11168 = ATCC 700819
measured_attribute: Kd

Given `AVGFFPTGV` , state its recorded Kd.
≥ 20 µM

----------
experimental_system: HLA-A*30:01
assay_name: IEDB peptide-MHC binding, purified MHC/direct/fluorescence; filed as Kd, often an IC50 or EC50 that approximates it; bounds were set here for any values at or beyond the usual limits of such assays
assay_setup: source organism: Pseudomonas aeruginosa
measured_attribute: Kd

Tell me reported Kd for `AYGSRFHEW` , tested with HLA-A*30:01.
≥ 31.6 µM

----------
experimental_system: HLA-A*02:01
assay_name: IEDB peptide-MHC binding, purified MHC/direct/fluorescence; filed as Kd, often an IC50 or EC50 that approximates it; bounds were set here for any values at or beyond the usual limits of such assays
assay_setup: source organism: Vibrio vulnificus
measured_attribute: Kd

Given `PHPVVVRTL` , state its recorded Kd.
≥ 20 µM

----------
experimental_system: HLA-B*57:01
assay_name: IEDB peptide-MHC binding, purified MHC/direct/fluorescence; filed as Kd, often an IC50 or EC50 that approximates it; bounds were set here for any values at or beyond the usual limits of such assays
assay_setup: source organism: Escherichia coli O157:H7
pKd: −log10 of the molar value.
measured_attribute: pKd

Tell me reported pKd for `VMAASGAPF` , tested with HLA-B*57:01.
≤ 4.70

----------
experimental_system: HLA-A*02:06
assay_name: IEDB peptide-MHC binding, purified MHC/direct/fluorescence; filed as Kd, often an IC50 or EC50 that approximates it; bounds were set here for any values at or beyond the usual limits of such assays
assay_setup: source organism: Variola virus
measured_attribute: pKd
Here pKd is given on a logarithmic scale as minus log10 of the concentration in mol/L.

Given `DLYDMIHNV` , state its recorded pKd.
7.12

----------
experimental_system: HLA-B*08:01
assay_name: IEDB peptide-MHC binding, purified MHC/competitive/fluorescence; filed as Kd, often an IC50 or EC50 that approximates it; bounds were set here for any values at or beyond the usual limits of such assays
assay_setup: source organism: Cryptosporidium parvum Iowa II
pKd: −log10 of the molar value.
measured_attribute: pKd

Tell me reported pKd for `TVFRNQNRV` , tested with HLA-B*08:01.
≤ 5.30
